system: Escherichia coli IAI1; test: fold change of Cadaverine concentration vs plate DMSO controls (fold change (ratio)); higher = more amine produced, active = hit call of the paper (significant change in both replicates, either direction); settings: incubation time: 27 h, anaerobic, 37 °C
Structures can show the parent of a compound that is named as a salt.
MEASURED PARAMETER: fold change of Cadaverine concentration
Please reply with the number alone, leaving off any unit.

Problem: For C[C@@H]1[C@H](O)[C@@H](C)/C=C/C=C/C=C/C=C/C=C/C=C/C=C/[C@H](O[C@@H]2O[C@H](C)[C@@H](O)[C@H](N)[C@@H]2O)C[C@@H]2O[C@](O)(C[C@@H](O)C[C@@H](O)[C@H](O)CC[C@@H](O)C[C@@H](O)CC(=O)O[C@H]1C)C[C@H](O)[C@H]2C(=O)O [Amphotericin B] (20 µM) , what is its reported fold change of Cadaverine concentration?
Result: 1.09

Problem: For N=C(N=C(N)N)N1CCOCC1 [Moroxidine hydrochloride] (20 µM) , what is its reported fold change of Cadaverine concentration?
Result: 0.916

Problem: For COc1cc([C@@H]2c3cc4c(cc3[C@@H](O[C@@H]3O[C@@H]5CO[C@@H](C)O[C@H]5[C@H](O)[C@H]3O)[C@H]3COC(=O)[C@H]23)OCO4)cc(OC)c1O [Etoposide] (20 µM) , what is its reported fold change of Cadaverine concentration?
Result: 0.966

Problem: For CCN(CC)CC(=O)Nc1c(C)cccc1C [Lidocaine hydrochloride] (20 µM) , what is its reported fold change of Cadaverine concentration?
Result: 0.975

Problem: For CN[C@@H]1CCc2[nH]c3ccc(C(N)=O)cc3c2C1 [Frovatriptan succinate] (20 µM) , what is its reported fold change of Cadaverine concentration?
Result: 1.03

Problem: For CC(C)[C@H](N)C(=O)OCCOCn1cnc2c(=O)nc(N)[nH]c21 [Valacyclovir hydrochloride] (20 µM) , what is its reported fold change of Cadaverine concentration?
Result: 0.987

Problem: For CCc1ccc(C(=O)C(C)CN2CCCCC2)cc1 (stereo not drawn) [Eperisone Hydrochloride] (20 µM) , what is its reported fold change of Cadaverine concentration?
Result: 0.992

Problem: For Cc1nn(C)c(Oc2ccccc2)c1/C=N/OCc1ccc(C(=O)OC(C)(C)C)cc1 (20 µM) , what is its reported fold change of Cadaverine concentration?
Result: 0.987

Problem: For CCCC(=O)N1CCCN(c2nc(N)c3cc(OC)c(OC)cc3n2)CC1 [Bunazosin hydrochloride] (20 µM) , what is its reported fold change of Cadaverine concentration?
Result: 0.996

Problem: For Cn1nnnc1SCC1=C(C(=O)O)N2C(=O)[C@@H](NC(=O)[C@H](O)c3ccccc3)[C@H]2SC1 [Cefamandole sodium salt] (20 µM) , what is its reported fold change of Cadaverine concentration?
Result: 2.1

Problem: For CCCCCNC(=N)N/N=C/c1c[nH]c2ccc(OC)cc12 [Tegaserod maleate] (20 µM) , what is its reported fold change of Cadaverine concentration?
Result: 1.04

Problem: For CCN(Cc1ccncc1)C(=O)C(CO)c1ccccc1 (stereo not drawn) [Tropicamide] (20 µM) , what is its reported fold change of Cadaverine concentration?
Result: 0.991

Problem: For COc1ccc(-c2cc(=O)c3c(O)cc(O[C@@H]4O[C@H](CO[C@@H]5O[C@@H](C)[C@H](O)[C@@H](O)[C@H]5O)[C@@H](O)[C@H](O)[C@H]4O)cc3o2)cc1O [Diosmin] (20 µM) , what is its reported fold change of Cadaverine concentration?
Result: 0.971
